system: 922993-354-T-J3-PDC complex spheroids, viability; assay: Anticancer human tumor 922993-354-T-J3-PDC patient-derived endometrial carcinoma cell line growth inhibition [GQUAD]; settings: second compound 0.1 µM; first compound 1 µM; stronger effect = lower value;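 also: spheroids exposed to compounds for seven days; 100% = DMSO vehicle control viability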
Recorded viability, T/C values for a group of molecules are listed next.
Report the figure in % without appending any unit label.

# example entries with known answers
>  <MOLECULE>
CC1COCCN1c1cc(-c2ccnn2C)c2ccnc(-c3ccn[nH]3)c2n1 (stereo not drawn) + Cc1cnc(CNC(=O)c2c(=O)c3ccc(N4CCCN(C)CC4)nc3n3c2sc2ccccc23)cn1

>  <MEASURED QUANTITY>
viability, T/C

>  <RESULT>
25.7

$$$$
>  <MOLECULE>
O=C(NO)c1cnc(N2CCN(S(=O)(=O)c3ccc4ccccc4c3)CC2)nc1 + Cc1cnc(CNC(=O)c2c(=O)c3ccc(N4CCCN(C)CC4)nc3n3c2sc2ccccc23)cn1

>  <MEASURED QUANTITY>
viability, T/C

>  <RESULT>
20.5

$$$$

### Prompt Name the recorded viability, T/C for COc1cc(C2c3cc4c(cc3C(OC3OC5COC(C)OC5C(O)C3O)C3COC(=O)C23)OCO4)cc(OC)c1O (stereo not drawn) + Cc1cnc(CNC(=O)c2c(=O)c3ccc(N4CCCN(C)CC4)nc3n3c2sc2ccccc23)cn1 .
### Response 63.6

Value source: PubChem BioAssay AID2060489
